experiment-description: chemical genetic growth profiling, strain panel (AID 1159580);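 note: tested at 20 µM; growth read once vehicle control cultures reached saturation at 30 °C; 1 = growth at the plate median or of vehicle wells; lower values mean less growth of the strain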
assay-context: S. cerevisiae deletion strains, growth OD, locus YML032C, strain rad52, active compounds read low
Hit rate of the full screen: of about 5,500 compounds, about 2,000 (36%) were called active. Roughly 18% stayed inconclusive and do not appear here. This is one part of the list.
recorded-metric: normalized growth
Just the number.

Some solved entries appear below for comparison.
INSERT INTO measurements (compound, recorded_metric, readout_value) VALUES
  ('O=C(O)CCC1NCC2CC1CN1CCCCC21 (stereo unspecified)', 'normalized growth', 1),
  ('Cc1cccc(C)c1NC(=O)C1CCCCN1C (stereo unspecified)', 'normalized growth', 0.998),
  ('CC(=O)O[C@H]1CC[C@@]2(C)C(C[C@@H](OC(C)=O)[C@]3(C)C2CC[C@@]2(C)[C@H](c4ccoc4)OC(=O)[C@H]4O[C@]423)C1(C)C (stereo partly specified)', 'normalized growth', 1.01),
  ('CC(=O)O[C@H]1C[C@@H](OC(C)=O)C(C)(C)C2C[C@@H](OC(C)=O)[C@]3(C)C(CC[C@@]4(C)[C@H](c5ccoc5)OC(=O)[C@H]5O[C@]543)[C@]21C (stereo partly specified)', 'normalized growth', 1),
  ('NC(N)=NCCCCN=C(N)N', 'normalized growth', 1.01);

// moving on: another record for normalized growth
Task: Recorded normalized growth for `Fc1ccc([C@@H]2CCNC[C@H]2COc2ccc3c(c2)OCO3)cc1` , please?
Output: 1.02

* * *

experiment-description: chemical genetic growth profiling, strain panel (AID 1159580);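 note: tested at 20 µM; growth read once vehicle control cultures reached saturation at 30 °C; 1 = growth at the plate median or of vehicle wells; lower values mean less growth of the strain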
assay-context: S. cerevisiae deletion strains, growth OD, locus YHR082C, strain KSP1, active compounds read low
The campaign covered roughly 5,500 compounds. About 2,000 (36%) were called active. Inconclusive results (about 18%) are left out. This is one part of the list.
recorded-metric: normalized growth
Respond with the number and no other words.

Field: example entries. Status: answers known.
INSERT INTO results (molecule, readout_value) VALUES
  ('O=C(Nc1ccncc1)c1cc(-c2ccccc2)oc1C(F)(F)F', 1.01),
  ('O=S(=O)(NCc1ccc(C(F)(F)F)cc1)c1cc(Br)c(Br)s1', 0.607),
  ('O=S(=O)(Nc1csc(C(F)(F)F)c1-c1ccccc1)c1cc(Br)c(Br)s1', 0.654),
  ('O=S(=O)(Nc1cc(Cl)c(Cl)cc1Cl)c1cc(C(F)(F)F)cc(C(F)(F)F)c1', 0.899),
  ('O=S(=O)(NCc1cc(Cl)cc(Cl)c1)c1cc(C(F)(F)F)cc(C(F)(F)F)c1', 0.896);

// next entry
Task: For the molecule Cc1ccc(NC(=S)C(C#N)C(=O)N2CCOCC2)c(C)c1 (stereo unspecified) , what normalized growth is on record?
Output: 1.21

* * *

experiment-description: chemical genetic growth profiling, strain panel (AID 1159580);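 note: tested at 20 µM; growth read once vehicle control cultures reached saturation at 30 °C; 1 = growth at the plate median or of vehicle wells; lower values mean less growth of the strain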
assay-context: S. cerevisiae deletion strains, growth OD, locus YNL128W, strain TEP1
Hit rate of the full screen: of about 5,500 compounds, about 2,000 (36%) were called active. About 18% were inconclusive and are not listed. Cut-off read from the data, not from the text of the source: active = normalized growth mostly below about 0.91 (no sharp cut-off); inconclusive = no clear call, values can overlap the other calls; inactive = mostly above about 0.92. The list shows a part of the results.
Your answer must be one of the following: True (active), False (inactive)

Task: How did this test come out for `NC(N)=NC(N)=Nc1ccccc1C(F)(F)F` ?
Output: False

Task: Per the records of this test, what outcome belongs to `CC(C)c1nc(N(C)S(C)(=O)=O)nc(-c2ccc(F)cc2)c1/C=C/[C@@H](O)C[C@@H](O)CC(=O)O` ?
Output: False

Task: Field: outcome | Entry: `CCOC(=O)c1ccc(Oc2ccc(Cl)cc2Cl)c([N+](=O)[O-])c1`
Output: False

Task: Record lookup: outcome of this test for `CC1(C)C(=O)N(CCN2CCC(C(=O)c3ccc(F)cc3)CC2)c2ccccc21` ?
Output: False
